Molecular target: T1, GPR39 (G protein coupled receptor 39) (UniProt O43194 1-453, limits assumed)
T1 sequence (looked up): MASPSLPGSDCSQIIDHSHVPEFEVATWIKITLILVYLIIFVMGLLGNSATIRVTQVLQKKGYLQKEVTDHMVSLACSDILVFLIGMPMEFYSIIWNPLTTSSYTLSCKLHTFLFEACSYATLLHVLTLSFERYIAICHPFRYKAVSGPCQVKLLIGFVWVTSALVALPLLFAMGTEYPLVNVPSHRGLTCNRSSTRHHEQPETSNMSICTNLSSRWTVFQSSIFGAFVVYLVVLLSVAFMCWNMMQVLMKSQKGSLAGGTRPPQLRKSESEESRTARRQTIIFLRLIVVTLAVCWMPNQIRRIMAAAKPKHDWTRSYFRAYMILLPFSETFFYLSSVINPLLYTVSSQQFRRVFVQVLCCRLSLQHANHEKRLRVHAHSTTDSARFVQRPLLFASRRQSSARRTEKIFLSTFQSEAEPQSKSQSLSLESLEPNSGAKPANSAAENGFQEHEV
Test: cell-based or functional assay
Square brackets hold non-standard residues; d marks the D form. Ends that are not written are not given here. * marks the point of attachment. Biotin = O=C1N[C@H]2[C@H](CS[C@H]2CCCCC(=O)*)N1; dPhe(4-Me) = Cc1ccc(C[C@@H](N)C(=O)O)cc1; Trt = c1ccc(C(c2ccccc2)(c2ccccc2)*)cc1; Benzhydryl = c1ccc(C(c2ccccc2)*)cc1; Tos = Cc1ccc(S(=O)(=O)*)cc1; Octanoyl = CCCCCCCC(=O)*
REPORTED METRIC: ECmax; SRE-luciferase reporter

Before answering, review these 5 worked examples.
1) Lys(Octanoyl)-Phe-Tyr [HKFY-54] ... 7.8 -fold induction over basal
2) H(Trt)K(Octanoyl)FYSDQQARF (not fully specified; printed as His(trt)-Lys(caprylic)-Phe-Tyr-Ser-Asp-Gln-Gln-Ala-Arg-Phe) [HKFY-38] ... 16.5 -fold induction over basal
3) His(Benzhydryl)-Lys(Octanoyl)-OH [HKFY-79] ... 11.2 -fold induction over basal
4) GSH(Trt)K(Octanoyl)FY [HKFY-37] ... 16 -fold induction over basal
5) H(Tos)K(Octanoyl)[dPhe(4-Me)]Y-OH [HKFY-75] ... 15.9 -fold induction over basal

As a next step, examine the binder that follows.
For the binder Biotin-H(Benzhydryl)K(Octanoyl)[dPhe(4-Me)]Y-OH [HKFY-72] , what ECmax; SRE-luciferase reporter is on record?
10.4 -fold induction over basal
